- measured.target: PI3Kγ (p110γ) Recombinant Human Protein (Homo sapiens (Human))
- Sequence (P48736 whole entry): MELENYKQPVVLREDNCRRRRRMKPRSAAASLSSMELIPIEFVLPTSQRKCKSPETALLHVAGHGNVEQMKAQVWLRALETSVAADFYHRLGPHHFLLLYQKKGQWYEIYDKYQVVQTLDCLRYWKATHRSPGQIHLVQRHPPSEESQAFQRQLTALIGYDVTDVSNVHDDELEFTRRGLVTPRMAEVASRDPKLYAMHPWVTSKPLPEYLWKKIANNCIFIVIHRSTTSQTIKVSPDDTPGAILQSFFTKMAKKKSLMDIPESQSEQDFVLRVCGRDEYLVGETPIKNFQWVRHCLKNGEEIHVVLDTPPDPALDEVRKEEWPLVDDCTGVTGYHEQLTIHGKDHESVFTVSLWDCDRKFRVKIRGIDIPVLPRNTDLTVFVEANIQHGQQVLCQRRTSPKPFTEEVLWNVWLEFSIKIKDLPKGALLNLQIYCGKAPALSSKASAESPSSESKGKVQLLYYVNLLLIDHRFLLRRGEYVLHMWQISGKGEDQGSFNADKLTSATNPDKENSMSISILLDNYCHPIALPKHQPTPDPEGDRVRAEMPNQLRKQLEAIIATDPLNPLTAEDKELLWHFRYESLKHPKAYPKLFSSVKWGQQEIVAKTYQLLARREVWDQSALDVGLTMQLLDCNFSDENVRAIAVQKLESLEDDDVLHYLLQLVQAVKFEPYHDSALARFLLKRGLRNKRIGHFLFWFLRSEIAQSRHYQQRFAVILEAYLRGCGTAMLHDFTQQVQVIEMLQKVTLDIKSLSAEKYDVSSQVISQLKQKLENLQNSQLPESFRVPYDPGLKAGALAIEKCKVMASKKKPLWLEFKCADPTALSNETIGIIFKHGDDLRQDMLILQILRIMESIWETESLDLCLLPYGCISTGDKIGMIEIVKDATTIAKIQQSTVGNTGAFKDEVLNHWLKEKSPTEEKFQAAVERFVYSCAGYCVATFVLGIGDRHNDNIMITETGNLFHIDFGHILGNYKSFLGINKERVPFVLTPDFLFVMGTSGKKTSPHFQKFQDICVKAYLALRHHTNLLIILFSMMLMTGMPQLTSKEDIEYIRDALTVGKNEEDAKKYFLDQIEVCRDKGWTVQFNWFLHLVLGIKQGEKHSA
- assay.explanation: PI3K-γ Scintillation Proximity Assay
- condition: 20 μM PIP2, 2 μM ATP, 13 nM PI3Kγ, 120 min
Where a name gives a salt, the structure may show the parent alone.
// values below are reported IC50

The examples below pair each entry with its known result.
molecule: C[C@@H](C1CC1)N1Cc2cc(-c3cnc4c(N)nc(C(F)(F)F)cn34)cc(S(C)(=O)=O)c2C1=O [Example 3]
measure.name: IC50
data.value: ≤ 0.1 µM
//
molecule: CC(c1cn2cc(-c3cnc4c(N)ncnn34)ccc2n1)C1CC1 (centres unmarked) [Example 27, trifluoroacetate salt]
measure.name: IC50
data.value: ≤ 0.1 µM
//
molecule: Cc1cc(-c2cnc3c(N)ncnn23)cc2cnn(C(C)C3CC3)c12 (centres unmarked) [Example 19, trifluoroacetate salt]
measure.name: IC50
data.value: ≤ 0.5 µM
//
molecule: CCN1Cc2cc(-c3cnc4c(N)ncnn34)ccc2C1=O [Example 10, trifluoroacetate salt]
measure.name: IC50
data.value: ≤ 0.5 µM

Note: attention shifts to another entry.
Can you share its IC50? I mean this molecule: CC(C)N1Cc2cc(-c3cnc4c(N)ncnn34)ccc2C1=O [Example 14, trifluoroacetate salt]
≤ 0.1 µM

====

// values below are reported pIC50
- measured.target: PI3Kδ (p110δ/p85α) Recombinant Human Protein (Homo sapiens (Human))
- assay.explanation: PI3Kδ Scintillation Proximity Assay
- condition: 20 μM PIP2, 2 μM ATP, 3.4 nM PI3Kδ, 120 min
pIC50: −log10 of the molar value. Where a name gives a salt, the structure may show the parent alone.

Can you share its pIC50? I mean this compound: CC(C1CC1)n1cc2cc(-c3cnc4c(N)ncnn34)ncc2n1 (stereo not shown) [Example 26, trifluoroacetate]
≤ 5.70

Can you share its pIC50? I mean this compound: C[C@@H](C1CC1)N1Cc2cc(-c3cnc4c(N)nc(C(=O)N5CC(C)(C)C5)cn34)cc(S(C)(=O)=O)c2C1=O [Example 29c, trifluoroacetate salt]
≥ 6.30

Can you share its pIC50? I mean this compound: CC(C)N1Cc2cc(-c3cnc4c(N)nc(C(F)(F)F)cn34)ccc2C1=O [Example 13, trifluoroacetate salt]
≤ 5.70

====

// values below are reported IC50
- measured.target: PI3Kγ (p110γ) Recombinant Human Protein (Homo sapiens (Human))
- assay.explanation: PI3K-γ Scintillation Proximity Assay
- condition: 20 μM PIP2, 2 μM ATP, 13 nM PI3Kγ, 120 min
Counter-ions that a name gives are not always drawn.

The examples below pair each entry with its known result.
molecule: C[C@@H](C1CC1)N1Cc2cc(-c3cnc4c(N)nc(C(=O)NC5CC(O)C5)cn34)ccc2C1=O (some centres unmarked) [Example 31, trifluoroacetate salt]
IC50: ≤ 100 nM
//
molecule: C[C@@H](C1CC1)N1Cc2cc(-c3cnc4c(N)ncnn34)cc(Cl)c2C1=O
IC50: ≤ 100 nM

GET /values?readout=IC50&system=PI3Kγ (p110γ) Recombinant Human Protein (Homo sapiens (Human))&item= NCC(C1CC1)N1Cc2cc(-c3cnc4c(N)nc(C(F)(F)F)cn34)ccc2C1=O (racemic) [Example 42, trifluoroacetate salt]
< 2000 nM

GET /values?readout=IC50&system=PI3Kγ (p110γ) Recombinant Human Protein (Homo sapiens (Human))&item= C[C@@H](C1CC1)N1Cc2cc(-c3cnc4c(N)ncnn34)cc(C(C)(C)O)c2C1=O [Example 17, trifluoroacetate salt]
≤ 100 nM

GET /values?readout=IC50&system=PI3Kγ (p110γ) Recombinant Human Protein (Homo sapiens (Human))&item= CC(c1ccccc1)N1Cc2cc(-c3cnc4c(N)nc(C(F)(F)F)cn34)ccc2C1=O (racemic) [Example 11, trifluoroacetate salt]
≤ 100 nM

GET /values?readout=IC50&system=PI3Kγ (p110γ) Recombinant Human Protein (Homo sapiens (Human))&item= CC(C)c1cc2cc(-c3cnc4c(N)ncnn34)ccn2n1 [Example 23, trifluoroacetate salt]
≤ 500 nM

GET /values?readout=IC50&system=PI3Kγ (p110γ) Recombinant Human Protein (Homo sapiens (Human))&item= CC(C)c1cc2nc(-c3cnc4c(N)ncnn34)ccn2n1 [Example 24, trifluoroacetate salt]
< 2000 nM

GET /values?readout=IC50&system=PI3Kγ (p110γ) Recombinant Human Protein (Homo sapiens (Human))&item= CS(=O)(=O)NCC(C1CC1)N1Cc2cc(-c3cnc4c(N)nc(C(F)(F)F)cn34)ccc2C1=O (racemic) [Example 43, trifluoroacetate salt]
< 2000 nM

====

// values below are reported pIC50
- measured.target: PI3Kδ (p110δ/p85α) Recombinant Human Protein (Homo sapiens (Human), UniProt O00329)
- Sequence (O00329 whole entry): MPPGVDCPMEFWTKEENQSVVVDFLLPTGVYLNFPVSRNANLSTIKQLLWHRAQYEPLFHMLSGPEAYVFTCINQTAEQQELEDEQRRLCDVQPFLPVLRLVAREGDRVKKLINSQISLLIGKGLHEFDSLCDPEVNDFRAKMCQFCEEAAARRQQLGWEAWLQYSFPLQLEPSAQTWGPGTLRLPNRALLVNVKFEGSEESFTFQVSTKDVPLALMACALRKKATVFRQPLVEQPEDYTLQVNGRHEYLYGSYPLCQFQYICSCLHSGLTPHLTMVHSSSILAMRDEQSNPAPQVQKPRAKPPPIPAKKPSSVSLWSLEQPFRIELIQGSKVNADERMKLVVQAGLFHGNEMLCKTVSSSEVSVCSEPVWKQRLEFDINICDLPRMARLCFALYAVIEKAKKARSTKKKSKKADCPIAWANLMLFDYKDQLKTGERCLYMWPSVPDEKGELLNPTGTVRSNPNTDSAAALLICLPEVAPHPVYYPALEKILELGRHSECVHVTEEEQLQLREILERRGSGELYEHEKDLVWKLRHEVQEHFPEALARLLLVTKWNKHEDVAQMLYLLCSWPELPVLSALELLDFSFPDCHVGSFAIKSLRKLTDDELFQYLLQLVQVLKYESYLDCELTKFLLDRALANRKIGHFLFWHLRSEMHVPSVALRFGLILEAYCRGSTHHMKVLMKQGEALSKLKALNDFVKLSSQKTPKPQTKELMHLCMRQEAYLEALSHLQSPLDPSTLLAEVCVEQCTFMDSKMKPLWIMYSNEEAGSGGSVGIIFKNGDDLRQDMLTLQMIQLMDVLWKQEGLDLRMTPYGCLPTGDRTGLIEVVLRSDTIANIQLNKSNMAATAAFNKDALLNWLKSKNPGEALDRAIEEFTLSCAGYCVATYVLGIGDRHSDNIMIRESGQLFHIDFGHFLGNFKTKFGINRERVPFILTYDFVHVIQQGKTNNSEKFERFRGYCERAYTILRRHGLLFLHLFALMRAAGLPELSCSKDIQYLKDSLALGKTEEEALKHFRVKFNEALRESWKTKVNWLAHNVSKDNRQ
- Sequence (P27986 whole entry partner): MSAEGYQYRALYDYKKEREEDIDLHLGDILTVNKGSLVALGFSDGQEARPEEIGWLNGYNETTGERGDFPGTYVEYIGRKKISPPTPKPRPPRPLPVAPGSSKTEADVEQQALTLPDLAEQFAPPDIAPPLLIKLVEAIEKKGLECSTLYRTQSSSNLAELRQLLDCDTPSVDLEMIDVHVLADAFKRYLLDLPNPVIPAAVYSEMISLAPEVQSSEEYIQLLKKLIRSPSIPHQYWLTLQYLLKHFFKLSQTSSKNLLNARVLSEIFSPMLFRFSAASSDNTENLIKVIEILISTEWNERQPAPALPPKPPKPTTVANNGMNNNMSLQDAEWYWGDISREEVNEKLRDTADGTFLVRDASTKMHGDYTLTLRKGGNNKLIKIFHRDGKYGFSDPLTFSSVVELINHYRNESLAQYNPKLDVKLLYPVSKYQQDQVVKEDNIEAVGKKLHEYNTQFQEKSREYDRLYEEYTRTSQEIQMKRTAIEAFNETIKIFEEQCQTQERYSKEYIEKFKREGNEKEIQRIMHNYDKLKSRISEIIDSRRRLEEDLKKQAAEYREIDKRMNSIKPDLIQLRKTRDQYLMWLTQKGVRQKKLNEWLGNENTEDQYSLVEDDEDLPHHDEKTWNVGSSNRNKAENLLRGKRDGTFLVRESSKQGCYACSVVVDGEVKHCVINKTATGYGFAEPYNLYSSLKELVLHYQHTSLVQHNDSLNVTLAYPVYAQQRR
- assay.explanation: PI3Kδ Scintillation Proximity Assay
- condition: 20 μM PIP2, 2 μM ATP, 3.4 nM PI3Kδ, 120 min
pIC50: −log10 of the molar value. Counter-ions that a name gives are not always drawn.

molecule: Cc1cc(-c2cnc3c(N)ncnn23)cc2cn(C(C)C3CC3)nc12 (racemic) [Example 18, trifluoroacetate salt]
data.value: ≤ 5.70
--
molecule: C[C@@H](C1CC1)N1Cc2cc(-c3cnc4c(N)ncnn34)cc(S(C)(=O)=O)c2C1=O [Example 8]
data.value: ≥ 6.30
--
molecule: CC(C)N1Cc2cc(-c3cnc4c(N)ncnn34)ccc2C1=O [Example 14, trifluoroacetate salt]
data.value: ≤ 5.70
--
molecule: Cc1ncc(-c2cn3c(-c4cc5c(c(S(C)(=O)=O)c4)C(=O)N([C@@H](C)C4CC4)C5)cnc3c(N)n2)s1 [Example 34, trifluoroacetate salt]
data.value: ≥ 7.00
--
molecule: CC(c1ccccc1)N1Cc2cc(-c3cnc4c(N)nc(C(F)(F)F)cn34)ccc2C1=O (racemic) [Example 11, trifluoroacetate salt]
data.value: ≤ 5.70

Can you share its pIC50? I mean this molecule: Nc1nc(C(F)(F)F)cn2c(-c3ccc4c(c3)CNC4=O)cnc12 [Example 4, trifluoroacetate salt]
> 5.70

Can you share its pIC50? I mean this molecule: CCN1Cc2cc(-c3cnc4c(N)ncnn34)ccc2C1=O [Example 10, trifluoroacetate salt]
> 5.70

Can you share its pIC50? I mean this molecule: CC(C1CC1)n1cc2cc(-c3cnc4c(N)ncnn34)cnc2n1 (stereo not shown) [Example 25, trifluoroacetate salt]
≤ 5.70

Can you share its pIC50? I mean this molecule: C[C@@H](C1CC1)N1Cc2cc(-c3cnc4c(N)nc(C(=O)N5CC(O)C5)cn34)ccc2C1=O (single isomer, unassigned) [Example 30, trifluoroacetate salt]
≤ 5.70

Can you share its pIC50? I mean this molecule: C[C@@H](C1CC1)N1Cc2cc(-c3cnc4c(N)nc(C(=O)NC5CCOCC5)cn34)cc(S(C)(=O)=O)c2C1=O [Example 29, trifluoroacetate salt]
≥ 6.30
